Experimental Readout: pKd
Keep in mind that pKd stands for -log10 of concentration in molar terms.

Test item C[C@]12CCc3c(ccc4ccc(O)cc34)[C@@H]1C[C@@H](O)C2 [VII, estra-1,3,5(10),6,8-pentaene-2,16α-diol] ; CLK1 (Homo sapiens); reported pKd was 5.85

* * *

Molecular target: DYRK1A (Homo sapiens, UniProt Q13627)
Experimental Readout: pKd
Remember, pKd is on a log scale: it is -log10 of the molar concentration.

Please fill in: pKd reported for C[C@]12CCc3c(ccc4ccc(O)cc34)[C@@H]1C[C@@H](O)C2 = 5.70

* * *

Biological target: ERβ (Homo sapiens, UniProt Q92731)
Sequence (Q92731 whole entry): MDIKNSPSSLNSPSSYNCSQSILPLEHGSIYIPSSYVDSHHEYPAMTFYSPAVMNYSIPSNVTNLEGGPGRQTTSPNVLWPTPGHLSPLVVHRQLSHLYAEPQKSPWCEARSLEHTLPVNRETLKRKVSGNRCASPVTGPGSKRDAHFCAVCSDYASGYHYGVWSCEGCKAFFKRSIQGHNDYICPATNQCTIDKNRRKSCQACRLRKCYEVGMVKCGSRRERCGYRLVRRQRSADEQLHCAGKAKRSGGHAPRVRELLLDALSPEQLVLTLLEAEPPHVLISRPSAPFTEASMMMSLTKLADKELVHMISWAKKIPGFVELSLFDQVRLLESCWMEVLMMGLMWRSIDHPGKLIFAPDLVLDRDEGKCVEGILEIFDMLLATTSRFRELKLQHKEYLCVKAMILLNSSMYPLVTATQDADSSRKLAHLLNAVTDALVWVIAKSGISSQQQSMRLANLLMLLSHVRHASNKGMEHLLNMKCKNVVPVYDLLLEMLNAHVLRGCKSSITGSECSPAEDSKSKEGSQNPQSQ
Experiment: estrogen receptor β agonist assay
Experimental Readout: EC50

// C[C@]12CCc3c(ccc4ccc(O)cc34)[C@@H]1C[C@@H](O)C2 : EC50 value = 21 nM

* * *

Experimental Readout: Kd (nM)
Only the number, expressed in nM, is required.

Lab note: molecule C[C@]12CCc3c(ccc4ccc(O)cc34)[C@@H]1C[C@@H](O)C2 tested on CLK2 (Homo sapiens); recorded Kd was 2000
